- Target under test: acetylcholine receptor
- Method: SPR, AchR immobilised on CM5 chip, peptide 10 uM
Endpoint label: Binding affinity (RU)
Your answer is read as RU, so omit the unit and give the number.

Below are worked cases with known answers.
| Binder | Unit spec | Binding affinity (RU) |
| --- | --- | --- |
| KNMWRK [6mer-2-669] | RU | 15 |
| KAHMKK [6mer-2-725] | RU | 25 |
| KTWEKK [6mer-2-686] | RU | 21 |

Record RIHAKK [6mer-2-739] , field Binding affinity (RU): 17

Looking up RFSFKK [6mer-2-758] , I see its Binding affinity (RU) listed as 18

Origin of values: patent US20250011363A1
